system-under-test: human GLP-1 receptor (human, UniProt P43220 24-463)
assay-info: cell-based or functional assay
Bridges are numbered along the chain shown (N, C = ends). Where no end group is shown, it is not given here. [ ]: non-standard residue; d: D form. The star is where a group is joined. Acetyl(2-(4-imidazolyl)) = O=C(Cc1c[nH]cn1)*; Aib = CC(C)(N)C(=O)O
quantity-measured: In vitro activity compared with native peptide (%) vs. GLP-1
Answers are plain numbers, in %.

1. {Acetyl(2-(4-imidazolyl))}-[Aib]QGTFTSDYSKYLDEKRQKEFVQWLLNTKC (bridge 15-19) [Triple agonist of SEQ ID NO: 88] ... 9.6
2. H[Aib]QGTFTSDVSKYLDGQAAKEFVAWLLKGC [Triple agonist of SEQ ID NO: 7] ... 13.7
3. H[Aib]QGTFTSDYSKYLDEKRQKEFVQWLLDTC (bridge 16-20) [Triple agonist of SEQ ID NO: 52] ... 44.1

Dear colleague, could you send me In vitro activity compared with native peptide (%) vs. GLP-1 for each of the items below? Thanks.
1. H[Aib]QGTFTSDYSKYLDERACQDFVQWLLDQGGPSSGAPPPS [Triple agonist of SEQ ID NO: 27]
2. [Acetyl(2-(4-imidazolyl))][Aib]QGTFTSDKSSYLDERAAQDFVQWLLDGGPSSGAPPPSS [Triple agonist of SEQ ID NO: 38]
3. {Acetyl(2-(4-imidazolyl))}-GQGTFTSDYSIQLDEIAVRDFVEWLKNGGPSSGAPPPSHG [Triple agonist of SEQ ID NO: 14]

83.1
2.3
28

Dear colleague, could you send me In vitro activity compared with native peptide (%) vs. GLP-1 for each of the items below? Thanks.
1. H[Aib]QGTFTSDVSSYLLGQQQKEFIAWLVKGGGPSSGAPPPSC [Triple agonist of SEQ ID NO: 5]
2. H[Aib]QGTFTSDVSKYLDGQAAQEFVAWLLAGC [Triple agonist of SEQ ID NO: 9]
3. Y[Aib]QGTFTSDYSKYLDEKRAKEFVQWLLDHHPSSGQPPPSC (bridge 16-20) [Triple agonist of SEQ ID NO: 42]

1: 42.1; 2: 32.1; 3: 33.9

Record request: In vitro activity compared with native peptide (%) vs. GLP-1 value, item Y[Aib]QGTFTSDYSKYLDEKRAKEFVQWLLDHCPSSGQPPPS (bridge 16-20) [Triple agonist of SEQ ID NO: 96]
34.4
